# protocol details: UV-Vis absorption and fluorescence spectroscopy of the Oxazine library
# Format: physicochemical
# measurement parameters: Beer's Law plots
readout name: Extinction coefficient (M⁻¹ cm⁻¹)

Below are worked cases with known answers.
{"compound": "CC/N=c1/cc2oc3cc4c(cc3nc-2cc1C)CCCN4 [LGW03-12]", "unit symbol": "M⁻¹ cm⁻¹", "Extinction coefficient": 40041}
{"compound": "CCNc1ccc2nc3ccc(=[N+](CC)CC)cc-3oc2c1C [LGW02-60]", "unit symbol": "M⁻¹ cm⁻¹", "Extinction coefficient": 65369}
{"compound": "CC[N+](CC)=c1ccc2nc3cc4c(cc3oc-2c1)NCC4 [LGW03-88]", "unit symbol": "M⁻¹ cm⁻¹", "Extinction coefficient": 59737}

a = CCN1CCOc2cc3c(cc21)Oc1cc2c(cc1=N3)OCC[N+]=2CC [LGW05-73]
b = c1cc2nc3ccc(=[N+]4CCCCC4)cc-3oc2cc1N1CCCCC1 [LGW04-91]
c = CC/N=c1/cc2oc3cc4c(cc3nc-2cc1C)OCCN4 [LGW03-41]
d = CCN1c2cc3oc4cc(=[N+](CC)CC)ccc-4nc3cc2C(C)=CC1(C)C [LGW03-52]
Query: # rank by Extinction coefficient, ascending (min first) Show the ranking through the labels, in the order asked for.
Response: c, d, a, b

P = CC/N=c1/cc2oc3cc(NCC)ccc3nc-2cc1C [LGW01-18]
Q = CCNc1ccc2nc3ccc(=[N+](CC)CC)cc-3oc2c1 [LGW01-25]
R = CC/N=c1/cc2oc3cc(NCC)c(Cl)cc3nc-2cc1Cl [LGW05-39]
Query: Put the items in sequence by Extinction coefficient, from largest down. Show the ranking through the labels, in the order asked for.
Response: P, Q, R

###

# protocol details: UV-Vis absorption and fluorescence spectroscopy of the Oxazine library
# Type: physicochemical
# Description: All reagents were purchased from Sigma Aldrich, Fisher Scientific, TCI, or Ark Pharm. Unless otherwise indicated, all commercially available starting materials were used directly without further purification. Analytical thin layer chromatography (TLC) was performed on Millipore ready-to-use plates with silica gel 60 (F254, 32-63 μm). […] Ions were detected in positive ion mode by setting the capillary voltage at 4 kV and gas temperature at 350° C. […] UV-Vis Absorption and Fluorescence Spectroscopy. […]
Reported Max Em values for a set of molecules
The response must be a number in nm with no trailing unit.

Below are worked cases with known answers.
{"compound smiles": "CC/N=c1/cc2oc3cc(N(C)C)ccc3nc-2cc1C", "unit symbol": "nm", "Max Em": 657}
{"compound smiles": "CC/N=c1/cc2oc3cc(NCC)cc(C)c3nc-2c(C)c1", "unit symbol": "nm", "Max Em": 627}

Consider the record given below.
Query: Find the recorded Max Em belonging to `CCNc1cc2oc3cc(=[N+](CC)CC)ccc-3nc2cc1C` and report it.
Response: 659

###

# protocol details: UV-Vis absorption and fluorescence spectroscopy of the Oxazine library
# Type: physicochemical
# measurement parameters: relative, references Oxazine 1, Oxazine 170, Rhodamine 101
readout name: Quantum yield (%)

Below are worked cases with known answers.
{"compound": "CC[N+](CC)=c1ccc2nc3cc4c(cc3oc-2c1)NCCC4 [LGW03-13]", "readout name": "Quantum yield", "measurement": 6.49}
{"compound": "Cc1cc2nc3cc(C)c(=N)cc-3oc2cc1N [LGW06-14]", "readout name": "Quantum yield", "measurement": 37.61}
{"compound": "CCNc1cc2oc3cc(=[N+](CC)CC)ccc-3nc2cc1C [LGW01-08]", "readout name": "Quantum yield", "measurement": 5.68}
{"compound": "CCN1CCc2cc3nc4ccc(=[N+](CC)CC)cc-4oc3cc21 [LGW05-84]", "readout name": "Quantum yield", "measurement": 4.85}
{"compound": "CCN1CCOc2cc3c(cc21)Oc1cc2c(cc1=N3)OCC[N+]=2CC [LGW05-73]", "readout name": "Quantum yield", "measurement": 32.95}

1 = CCN1CCCc2cc3nc4ccc(=[N+](CC)CC)cc-4oc3cc21 [LGW02-92]
2 = CCN=c1cc2oc3cc(NCC)c(C)cc3nc-2cc1C.[O-][Cl+3]([O-])([O-])O [OX-4, reference compound]
3 = CCNc1cc2oc3cc(=[N+](CC)CC)ccc-3nc2cc1F [LGW05-82]
Query: # rank by Quantum yield, ascending (min first) Show the ranking through the labels, in the order asked for.
Response: 3, 1, 2

###

# protocol details: UV-Vis absorption and fluorescence spectroscopy of the Oxazine library
# Format: physicochemical
# measurement parameters: Beer's Law plots
readout name: Extinction coefficient (M⁻¹ cm⁻¹)

Below are worked cases with known answers.
{"molecule": "CCNc1cc(C)c2nc3ccc(=[N+](CC)CC)cc-3oc2c1 [LGW02-61]", "unit symbol": "M⁻¹ cm⁻¹", "Extinction coefficient": 68548}
{"molecule": "CC/N=c1/cc2oc3cc(NCC)c(F)cc3nc-2cc1C [LGW05-81]", "unit symbol": "M⁻¹ cm⁻¹", "Extinction coefficient": 58410}
{"molecule": "CC/N=c1/cc2oc3cc(NCC)cc(C)c3nc-2cc1C [LGW02-59]", "unit symbol": "M⁻¹ cm⁻¹", "Extinction coefficient": 41229}
{"molecule": "CCNc1cc2oc3cc(=[N+](CC)CC)ccc-3nc2cc1C [LGW01-08]", "unit symbol": "M⁻¹ cm⁻¹", "Extinction coefficient": 78650}
{"molecule": "CC1=CC(C)(C)Nc2cc3c(cc21)N=c1cc2c(cc1O3)=NC(C)(C)C=C2C [LGW03-01]", "unit symbol": "M⁻¹ cm⁻¹", "Extinction coefficient": 44453}

A = CC/N=c1/cc2oc3cc4c(cc3nc-2cc1C)CCN4CC [LGW05-76]
B = CC[N+](CC)=c1ccc2nc3ccc(N4CCCCC4)cc3oc-2c1 [LGW03-18]
Query: Between A and B , which one has the lower reported Extinction coefficient value? Please identify the chosen entry by its label.
Response: A

1 = c1c2c(cc3c1N=c1cc4c(cc1O3)=NCCC4)NCCC2 [LGW03-32]
2 = CN(C)c1ccc2nc3ccc(=[N+](C)C)cc-3oc2c1 [LGW01-39]
Query: Between 1 and 2 , which one has the lower reported Extinction coefficient value? Please identify the chosen entry by its label.
Response: 1

###

# protocol details: UV-Vis absorption and fluorescence spectroscopy of the Oxazine library
# Format: physicochemical
# measurement parameters: Beer's Law plots
readout name: Extinction coefficient (M⁻¹ cm⁻¹)

{"molecule": "CC[N+](CC)=c1ccc2nc3cc4c(cc3oc-2c1)NCCC4 [LGW03-13]", "Extinction coefficient [M⁻¹ cm⁻¹]": 64045}
{"molecule": "CCN1CCOc2cc3nc4ccc(=[N+](CC)CC)cc-4oc3cc21 [LGW05-65]", "Extinction coefficient [M⁻¹ cm⁻¹]": 61535}
{"molecule": "CC/N=c1\\ccc2nc3ccc(NCC)cc3oc-2c1 [LGW01-21]", "Extinction coefficient [M⁻¹ cm⁻¹]": 28745}
{"molecule": "CCCNc1cc2oc3cc(=[N+](CC)CC)ccc-3nc2cc1C [LGW04-31]", "Extinction coefficient [M⁻¹ cm⁻¹]": 59586}
{"molecule": "CC/N=c1/cc2oc3cc(NCC)c(F)cc3nc-2cc1F [LGW05-91]", "Extinction coefficient [M⁻¹ cm⁻¹]": 16763}
{"molecule": "CC[N+](CC)=c1ccc2nc3ccc(N4CCCC4)cc3oc-2c1 [LGW03-07]", "Extinction coefficient [M⁻¹ cm⁻¹]": 52356}
{"molecule": "CCC/N=c1/cc2oc3cc(NCCC)c(C)cc3nc-2cc1C [LGW01-64]", "Extinction coefficient [M⁻¹ cm⁻¹]": 50166}
